# Species on record: Homo sapiens
# TEST_DETAILS: Selectivity ratio of Kd for partial length human BRD3 bromodomain 1 to Kd for partial length human BRD4 bromodomain 1
Entries and their Selectivity ratio values follow.

Please review the following examples before continuing.
COMPOUND: CCc1c(C(=O)Nc2ccc(F)c(S(=O)(=O)N3CCOCC3)c2)[nH]c(C)c1C(C)=O
Selectivity ratio: 4.79
--
COMPOUND: CCc1c(C(=O)N(C)Cc2cccc(C(N)=O)c2)[nH]c(C)c1C(C)=O
Selectivity ratio: 4.12
--
COMPOUND: CCc1c(C(=O)Nc2cc(S(=O)(=O)N(CC)CC)ccc2O)[nH]c(C)c1C(C)=O
Selectivity ratio: 12.2

// next entry
In: Please list Selectivity ratio recorded for the compound CCc1c(C(=O)Nc2cc(S(=O)(=O)N(CC)CC)ccc2O)[nH]c(C)c1C(=O)CO
Out: 0.62
